Origin of measurements: ChEMBL document CHEMBL1149318

- Test system: Human gammaherpesvirus 4
- ASSAY METHOD TEXT: Inhibition of EBV replication in Daudi cells by VCA ELISA
- Format: functional, organism-based
- CONDITIONS USED: human gammaherpesvirus 4, Daudi
pEC50: −log10 of the molar value.
Please go through the items and note down their pEC50.

1) Cc1cn(/C=C2\CC2(F)CO)c(=O)[nH]c1=O (stereo not drawn); < 3.66
2) Nc1ccn(/C=C2/CC2(F)CO)c(=O)n1 (stereo not drawn); > 6.42

Now for a further compound.
Inquiry: Quick one: give measured pEC50 for Nc1nc2c(ncn2/C=C2\CC2(F)CO)c(=O)[nH]1 (stereo not drawn)
Reply text: > 6.49

----------
- ASSAY METHOD TEXT: Cytotoxicity against Daudi cells
- Assay type: cell-based
- CONDITIONS USED: human
Please go through the items and note down their CC50.

1) Nc1nc2c(ncn2/C=C2\CC2(F)CO)c(=O)[nH]1 (stereo not drawn); > 199 µM
2) Nc1ncnc2c1ncn2/C=C1\CC1(F)CO (stereo not drawn); > 209 µM

Inquiry: Quick one: give measured CC50 for Cc1cn(/C=C2\CC2(F)CO)c(=O)[nH]c1=O (stereo not drawn)
Reply text: > 221 µM
